Values compiled from paper PMC8279492.

assay: Compounds' toxicity, CellTiter 96 AQueous One Solution Cell Proliferation Assay; assay type: cell-based; conditions: human, HeLa-CD4-LTR-β-gal reporter cells, CC50 (cytotoxic concentration 50%), HeLa-CD4-LTR-β-gal cells, 24 h
property: CC50 at 24 h

Fill in the blank: the reported CC50 at 24 h of "O=C(O)c1cn(Cc2ccc(F)cc2)c2ccc(OCc3ccc(OCc4ccccc4)cc3)cc2c1=O" is ____.
> 100 µM

---

target: HIV-1 RT-associated RNase H activity (Human immunodeficiency virus type 1 group M subtype B); construct: His-tagged p66/p51 HIV-1 RT group M subtype B; His; made in house; host or cells: Escherichia coli M15; assay: biochemical; type: biochemical; details: anti-RH activity (IC50 ± SD), HIV-1 RT-associated RNase H activity, dose-response curves, no preincubation
Each item that follows carries a reported pIC50.
// scale note: pIC50 = -log10(conc_M); give the bare number

Fill in the blank: the reported pIC50 of CCOC(=O)c1cn(Cc2ccc(F)cc2)c2ccc(OCc3cccc4ccccc34)cc2c1=O [5o] is ____.
5.83

Fill in the blank: the reported pIC50 of CCOC(=O)c1cn(Cc2ccc(F)cc2)c2ccc(OCc3ccc4c(c3)OCO4)cc2c1=O [5q] is ____.
4.26

Fill in the blank: the reported pIC50 of CCOC(=O)c1cn(Cc2ccc(F)cc2)c2ccc([N+](=O)[O-])cc2c1=O [5e] is ____.
4.32

Fill in the blank: the reported pIC50 of CCOC(=O)c1cn(Cc2ccc(F)cc2)c2ccc(Oc3ccccc3)cc2c1=O [5i] is ____.
4.34

Fill in the blank: the reported pIC50 of CCOC(=O)c1cn(Cc2ccc(F)cc2)c2ccc(C(F)(F)F)cc2c1=O [5c] is ____.
4.23

Fill in the blank: the reported pIC50 of O=C(O)c1cn(Cc2ccc(F)cc2)c2ccc(OCc3ccc4c(c3)OCO4)cc2c1=O [4q] is ____.
4.87

Fill in the blank: the reported pIC50 of O=C(O)c1cn(Cc2ccc(F)cc2)c2ccc(OCCCCc3ccccc3)cc2c1=O [4r] is ____.
5.08
